- Condition Description: 298.15 K; 101.3 kPa; Liquid
Exercise: for every item that follows, state its recorded speed of sound.
One number for each entry, in m/s.

Examples from the recorded data:
> print(dat)
                         compound  assay.value
1                       CCCC(C)=O         1212
2  COC(=O)OC [dimethyl carbonate]         1198
3                         CC(C)=O         1162

Input line: Please report the measured speed of sound for CCC(C)=O
Output line: 1192

###

- Condition Description: 298.15 K; 101.3 kPa; Liquid
Exercise: for every item that follows, state its recorded mass density.
Numbers only, in kg/m3.

Examples from the recorded data:
> print(dat)
    compound  assay.value
1  CCCC(C)=O       801.39
2   CCC(C)=O        799.7
3    CC(C)=O       784.37

Turning now to a further compound:
Input line: Please report the measured mass density for COC(=O)OC [dimethyl carbonate]
Output line: 1063.33

###

Exercise: for every item that follows, state its recorded Normal boiling temperature.
- Condition Description: Liquid
Give bare numbers, in °C.

Examples from the recorded data:
> print(dat)
                         compound            measurement.name  assay.value
1  COC(=O)OC [dimethyl carbonate]  Normal boiling temperature        90.31
2                       CCCC(C)=O  Normal boiling temperature       102.21
3                        CCC(C)=O  Normal boiling temperature        79.63

Input line: Please report the measured Normal boiling temperature for CC(C)=O
Output line: 56.12
